# measured_on: Trace amine-associated receptor 1 (Homo sapiens) (UniProt Q96RJ0)
# Sequence (Q96RJ0 whole entry, looked up): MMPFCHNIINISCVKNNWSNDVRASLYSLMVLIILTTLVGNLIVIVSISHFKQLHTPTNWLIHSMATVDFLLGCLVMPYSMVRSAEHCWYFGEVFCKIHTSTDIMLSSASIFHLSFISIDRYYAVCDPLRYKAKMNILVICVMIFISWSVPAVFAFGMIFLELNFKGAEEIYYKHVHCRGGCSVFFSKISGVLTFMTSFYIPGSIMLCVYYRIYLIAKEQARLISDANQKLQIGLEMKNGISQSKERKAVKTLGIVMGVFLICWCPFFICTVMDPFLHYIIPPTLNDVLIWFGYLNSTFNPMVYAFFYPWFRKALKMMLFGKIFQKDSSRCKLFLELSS
# assay_overview: activators of TAAR1 calcium mobilization – Fluo-8 calcium fluorescence, CHO RD-HGA16 cells, primary screen (AID 624467)
# measurement_context: CHO RD-HGA16 TAAR1, Fluo-8 calcium fluorescence; at 3 µM; vehicle wells 0%, saturating PEA agonist 100%
Screen size: about 360,000 compounds; about 3,600 (1%) were called active.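 Rule for the calls: active = activation above the mean activation of all test compounds in the run plus 3 SD (cut at about 38% in these data); inactive = the rest.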 For the sample, actives were picked, then their nearest neighbours and some compounds at random.
In this exercise, the only acceptable responses are T = active, F = inactive

Check out these entries, answers already filled in.
[[record]]
molecule = "O=C(NNC(=S)Nc1ccc(Br)cc1Cl)c1ccco1"
qualitative_label = "F"

[[record]]
molecule = "CC(C)CCNC(=O)Cn1c(=O)oc2cc(S(=O)(=O)N3CC(C)CC(C)C3)ccc21 (stereo not given)"
qualitative_label = "F"

[[record]]
molecule = "CCC(c1nnnn1Cc1ccco1)N(CCc1ccccc1)Cc1cc2cccc(C)c2[nH]c1=O (stereo not given)"
qualitative_label = "T"

[[record]]
molecule = "CC(Oc1ccc2ccccc2c1)C(=O)NNC(=S)NC(=O)c1ccco1 (stereo not given)"
qualitative_label = "T"

[[record]]
molecule = "COc1ccccc1N(CC(=O)NC1CCCC1)C(=O)C1(C)CC(=O)N=C2C=CC(C)=CN21 (stereo not given)"
qualitative_label = "F"

[[record]]
molecule = "CC(=O)N1C[C@@H](CO)[C@@H](N(C)C(=O)C(C)(C)C)C[C@H]1c1ccccc1Br"
qualitative_label = "F"

[[record]]
molecule = "CCOc1ccc(Cl)cc1-c1cc(C(=O)NCc2cccs2)[nH]n1"
qualitative_label = "F"

[[record]]
molecule = "COC(=O)[C@]12C[C@H](CC(=O)NCCC(C)C)C(=O)N(CCc3ccc(OC)c(OC)c3)C1=C[C@H](C(C)(C)C)O[C@@H]2C"
qualitative_label = "F"

[[record]]
molecule = "COC(=O)Cc1nnn2c1[C@H](C)[C@H](c1ccccc1[N+](=O)[O-])OCC2"
qualitative_label = "F"

[[record]]
molecule = "Cc1cccc(N(C(=O)c2ccc(CN3CCOCC3)o2)C(C(=O)NC2CCCCC2)c2ccc(F)cc2)c1 (stereo not given)"
qualitative_label = "F"


Enquiry: Please let me know the test result on file for COc1ccc(NC(=O)C2(C)Cc3c(-c4ccc(C(N)=O)cc4)ccnc3O2)cc1 (stereo not given) .
Return: F

Enquiry: # lookup: test call for `NS(=O)(=O)c1ccc(CNC(=S)NC(=O)c2ccco2)cc1`
Return: F

Enquiry: How was CCC(c1nnnn1C1CCCC1)N(Cc1cccs1)Cc1cc2cccc(C)c2[nH]c1=O (stereo not given) classified in this test?
Return: F

Enquiry: Entry `O=C1C2(c3ccccc3)CN(CCCO)CC1(c1ccccc1)CN(CCCO)C2` : call = ?
Return: F

Enquiry: Any idea what this test logged for `COc1ccc(NC(=O)N(C)C[C@@H]2OCCCC[C@@H](C)Oc3ccc(NC(=O)NC4CCCCC4)cc3C(=O)N([C@H](C)CO)C[C@@H]2C)cc1` ?
Return: F

###

# measured_on: Trace amine-associated receptor 1 (Homo sapiens) (UniProt Q96RJ0)
# assay_overview: activators of TAAR1 calcium mobilization – Fluo-8 calcium fluorescence, CHO RD-HGA16 cells, primary screen (AID 624467)
# measurement_context: CHO RD-HGA16 TAAR1, Fluo-8 calcium fluorescence; at 3 µM; active compounds read high; vehicle wells 0%, saturating PEA agonist 100%
Out of some 360,000 compounds screened, about 3,600 (1%) were called active. The full list was thinned out, with actives kept by preference.
What activation was measured for each of the following?

Some solved entries appear below for comparison.
[[record]]
compound = "NC(N)=Nc1nc2ccc(Br)cc2c(=O)[nH]1"
measured_on = "Trace amine-associated receptor 1 (Homo sapiens) (UniProt Q96RJ0)"
assay_endpoint = "activation"
reported_value = "10.5% (inactive)"

[[record]]
compound = "NC(=O)c1cc(-c2cccnc2)nc2ccc(Br)cc12"
measured_on = "Trace amine-associated receptor 1 (Homo sapiens) (UniProt Q96RJ0)"
assay_endpoint = "activation"
reported_value = "0.6% (inactive)"

[[record]]
compound = "COc1cc2c(cc1OC)CN(C(C)C(=O)Nc1cccc(S(=O)(=O)N3CCOCC3)c1)CC2 (stereo unspecified)"
measured_on = "Trace amine-associated receptor 1 (Homo sapiens) (UniProt Q96RJ0)"
assay_endpoint = "activation"
reported_value = "0.59% (inactive)"

[[record]]
compound = "O=C(Cn1cncn1)N/N=C/c1c2ccccc2cc2ccccc12"
measured_on = "Trace amine-associated receptor 1 (Homo sapiens) (UniProt Q96RJ0)"
assay_endpoint = "activation"
reported_value = "6.44% (inactive)"

[[record]]
compound = "C=CCN=C1NC(c2ccccc2)C(C(=O)OC)=C(C)N1Cc1ccc(C(F)(F)F)cc1 (stereo unspecified)"
measured_on = "Trace amine-associated receptor 1 (Homo sapiens) (UniProt Q96RJ0)"
assay_endpoint = "activation"
reported_value = "26.7% (inactive)"

[[record]]
compound = "NC(=O)C1CCN(C(=O)c2cn(-c3ccccc3)nc2-c2cccnc2)CC1"
measured_on = "Trace amine-associated receptor 1 (Homo sapiens) (UniProt Q96RJ0)"
assay_endpoint = "activation"
reported_value = "1.55% (inactive)"


Please state, for each entry, its recorded activation.
1. COc1cc(OC)cc(C(=O)NC(C(=O)N2CCC2)C(C)C)c1 (stereo unspecified)
2. CCN(CCN(C)C)C(=O)c1ccc2nc(C)c(N(C)C(=O)CCc3ccccc3)n2c1
3. CSc1ccc(NC(=O)N2CC(C)OC(C)C2)cc1 (stereo unspecified)
4. COc1ccc(-n2cc(CNC3CCOCC3)c(-c3cccc(F)c3)n2)cc1
5. COC(=O)c1c(-c2ccc(OC)cc2)c2c(c3c4cc(OC)ccc4n(S(=O)(=O)c4ccc(F)cc4)c13)C(=O)N(C)C2
6. COC(=O)[C@H](Cc1ccccc1)NC(=O)N1CC(C)OC(C)C1 (stereo partly specified)
7. Cc1ccc(OCC(=O)Nc2ccc(C(=O)O)cc2NC(=O)COc2ccc(C)c(C)c2)cc1C

Return:
1. 0.84% (inactive)
2. 1.46% (inactive)
3. 6.32% (inactive)
4. 7.84% (inactive)
5. -0.58% (inactive)
6. -0.71% (inactive)
7. 3.56% (inactive)

Hi team, please reply with activation for each item in this list.
1. COC(=O)C1=C(C)N(Cc2ccccc2C(F)(F)F)C(=NCc2ccc(C(F)(F)F)cc2)NC1c1ccc(F)cc1 (stereo unspecified)
2. O=C(Cn1nnc(-c2ccccc2)n1)N/N=C/c1ccc(-c2ccc(Cl)cc2)o1
3. COC(=O)[C@@H](Cc1ccccc1)NC(=O)NCCc1ccccc1
4. CCn1cc(CN2CCC(C(=O)Nc3cccc(-c4cccc(Cl)c4)c3)CC2)c(C)n1
5. C=CCOc1ccccc1/C=N/NC(=O)Cc1ccccc1
6. Cc1ccc(OC(=O)c2cncc(Br)c2)c(C)c1
7. Cc1ccc(CNC(=O)Nc2nnc([C@H]3C[C@H](O)[C@@H](CO)O3)s2)cc1
8. COCCNC(=O)C1CCN(C(=O)C2CC(=O)N(c3ccc(C)cc3)C2)CC1 (stereo unspecified)

Return:
1: 0.73% (inactive); 2: -0.07% (inactive); 3: -0.6% (inactive); 4: 19.7% (inactive); 5: 3.06% (inactive); 6: 6.31% (inactive); 7: 0.94% (inactive); 8: -0.76% (inactive)

For every listed record, write down its activation.
1. COCCCNC(=S)NC(=O)c1ccc([N+](=O)[O-])cc1
2. CCOC(=O)CNC(=O)N(C)[C@H]1C[C@H]2c3[nH]c4c(-c5ccc6c(c5)OCO6)cccc4c3CCN2C(=O)[C@H]1[C@H](C)O
3. COc1cc(NC(=O)c2ccc(-c3csc(C)n3)cc2)c(OC)cc1Cl
4. CC(C)CNc1cccc2c1S(=O)(=O)N[C@H](C)CO2
5. O=C(Cn1c(N2CCN(C/C=C/c3ccccc3)CC2)nc2ccccc21)c1ccccc1
6. COc1ccccc1N1CCN(C(=O)c2cn(-c3ccccc3)nc2-c2cccnc2)CC1
7. O=C1NC[C@H](CCCCN2C[C@H](Cc3ccc(O)cc3)N(CC3CCCCC3)C(=O)C2=O)N(CCc2ccccc2)C1=O
8. O=C(Nc1nnc([C@H]2C[C@H](O)[C@@H](CO)O2)s1)c1cccc(Cl)c1

Return:
1: 0.22% (inactive); 2: 11.6% (inactive); 3: 3.15% (inactive); 4: -0.59% (inactive); 5: 7.57% (inactive); 6: 19.1% (inactive); 7: -0.06% (inactive); 8: 2.33% (inactive)

For each entry beneath this line, provide reported activation.
1. Cc1nc(-c2ccc(NC(=O)c3cccs3)cc2)cs1
2. CCn1cc(CN2CCC(C(=O)Nc3cccc(-c4cccc(Cl)c4)c3)CC2)cn1
3. O=C(CO/N=C/c1ccccc1O)NNC(=O)c1ccccc1Cl
4. O=c1c2cc(Br)ccc2nc(-c2cccc(Cl)c2)n1O

Return:
44.8% (active)
16.6% (inactive)
8.86% (inactive)
51.9% (active)
